- Tested on: Fer (mouse);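 further: 11-residue human phosphosite peptides and single-mutation variants displayed on the E. coli surface, counted by deep sequencing, each peptide's frequency after selection divided by its frequency in the unselected input library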;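 further: frequency after pTyr selection over input frequency; kinase dosed for 20-30% of maximal phosphorylation in three min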
- procedure text: phosphorylation enrichment, bacterial display (enrichment ratio); higher = better substrate or ligand; peptides without Tyr show the background
Outcome: true for phosphorylation enrichment of at least 0.5; false for anything lower.

>>> print(df.to_string())
                    construct_sequence  class_label
 0       CSTIHYNYMCN [TP53_Y234_T230S]         true
 1             SSTASYFEAPG [RFX2_Y108]        false
 2       LHRAHYDLCHT [AHSG_Y314_R317C]         true
 3        IHTEFYDGLFP [BCR_Y561_K558T]         true
 4        FKPENYRRLDI [VHL_Y175_V170F]        false
 5      AELKLYSGAQT [ZAP70_Y178_R175L]        false
 6          ISIFRYAKGQP [MPZ_Y82_H81R]        false
 7        QTEAQYRFIFM [PTPN11_Y511_YF]         true
 8        QGGRCYMMIVD [GAA_Y438_R437C]         true
 9       PLCPDYQEPSR [DDR2_Y481_R478C]         true
10         LAARFYNWVSF [FLT4_Y1231_YF]         true
11       RISPEYKQNEI [GJB1_Y243_L239I]         true
12         KIPGRYYETGS [PAX2_Y72_L69P]         true
13     ECKLFYSRKEG [PTPN11_Y263_L262F]        false
14     AIKSFYAALID [RYR1_Y2426_M2423K]        false
15      GEDEPYAEPYA [APBA1_Y183_S184A]         true
16      AVDDKYSRREE [SART1_Y685_I681V]        false
17            FSQQTYYRVSN [ABCD1_Y180]        false
18       SGKSEYLLPVA [MYLK_Y611_R607G]        false
19       SVTCTYSLALN [TP53_Y126_P128L]         true
20            LVTAWYIGFLC [KCNQ2_Y237]         true
21      QSRSPYSSRHS [CDK13_Y415_R410Q]         true
22           LRLSSYSTTIR [CYP7B1_Y365]         true
23      TPRNTYKMTSV [MKI67_Y849_L854V]        false
24             DIPIRYSITGV [CDH4_Y205]        false
25     QPTPGYEVGQR [TSC2_Y1788_E1783Q]        false
26           TNFRLYLRSLE [MTM1_Y71_YF]         true
27              QAQMDYRRLQP [MPL_Y591]        false
28     PKEEPYKMQEK [SLC5A3_Y565_Q566K]         true
29    CTTIHYNFMWN [TP53_Y234_C238W_YF]         true
30           EQKKYYNAMKK [SCN5A_Y1495]        false
31      SYCYRYCCAAR [SUMF1_Y344_R345C]        false
32    NKKFHYRELPV [ERN2_Y860_H858Y_YF]        false
33      VQEDIYDEFVV [ALDH2_Y332_E337V]         true
34  TSIGNYFKPWF [DHCR24_Y299_N294T_YF]        false
35        PATFTYDEFKK [COL8A2_Y648_YF]         true
36       NDENIYKGLPD [VAV3_Y141_D139N]         true
37       RRNNSYTCFTA [SLC20A2_Y386_YF]         true
38          RLLVVYPSTQR [HBB_Y36_W38S]         true
39        YKGKNYKPLDL [RPL35_Y78_K77N]        false
40             GLALRYLSDHS [VWF_Y1584]         true
41      GCRSKYVGLWR [KCNQ1_Y184_G189R]        false
42            SIKDKYVTALY [KCNH2_Y611]        false
43         VKPRRYRPGTV [H3-5_Y41_H39R]        false
44        VDASFYGGRGV [ANTXR2_Y381_YF]        false
45            NLPGGYSGSVK [MCPH1_Y606]        false
46           VIDGKYAFKPK [GTF2E2_Y137]        false
47       VLICAYLLHRG [PTEN_Y138_M134L]         true
48     TVEDHDFEGGI [TKT_Y563_Y563D_YF]         true
49    LIDGFYRLTED [JAK2_Y373_A377E_YF]         true
50              TRSYKYLLLSM [NF1_Y491]        false
51        RRIHSYRCHLW [VHL_Y112_G114C]         true
52      GLALRCLSDHS [VWF_Y1584_Y1584C]         true
